Source listed as PubChem BioAssay (Tox21).

Assay: qHTS assay to identify small molecule agonists of the estrogen related receptor signaling pathway with the pleiotropic PPARgamma coactivator (PGC) from Tox21 10K library (AID 1224842); also: nearly all actives have a fitted effect of over 15% in size
Details: PGC/ERR reporter cell line, luciferase ONE-Glo, 18 h; series mostly up to 92.4 µM
Procedure: National Center for Advancing Translational Sciences [NCATS] NIH Chemical Genomics Center [NCGC] U.S. Environmental Protection Agency [EPA] National Institutes of Environmental Health Sciences [NIEHS] National Toxicology Program [NTP] […] Assay Protocol Summary: The PGC/ERR cells were dispensed at 2,000 cells/5 ul/well in 1536-well white plates using a Multidrop dispenser. […] After 30-minute incubation at room temperature, the luminescence intensity in the plates was measured using a ViewLux plate reader.
Results filed as inconclusive are left out. The source made the active and inactive calls. Calls follow the shape of the dose curve; as a rule, active = well fitted activation curve with a large enough effect in the repeat runs; inconclusive = weak or mixed curves, or effect the other way; inactive = no such curve, though single readings can be large or run the other way.
Possible outcomes: active, inactive

COMPOUND	CATEGORY_LABEL
N=C1C=CC(=C(c2ccc(N)cc2)c2ccc(N)cc2)C=C1	inactive
Oc1ccc2c(c1)-c1ccccc1C2	inactive
O=c1[nH]cnc2nc[nH]c12	inactive
CCCCCCCCCCC=O	inactive
Oc1ccc(Cl)cc1Sc1cc(Cl)ccc1O	inactive
Nc1c2ccccc2nc2ccccc12	inactive
CC(C)(C)C(=O)OCOC(=O)[C@@H]1N2C(=O)[C@@H](NC(=O)[C@H](N)c3ccccc3)[C@H]2SC1(C)C	inactive
CCCCCCCC[N+](CCCCCCCC)(CCCCCCCC)CCCCCCCC	inactive
CN(C)[C@@H]1C(=O)C(C(N)=O)=C(O)[C@@]2(O)C(=O)C3=C(O)c4c(O)ccc(Cl)c4[C@@H](O)[C@H]3C[C@@H]12	inactive
O=C(Nc1cccc(Cl)c1)OCC#CCCl	inactive
ON=C1CCCC1	inactive
C[C@H](CCC(=O)O)[C@H]1CC[C@H]2[C@@H]3CC[C@@H]4C[C@H](O)CC[C@]4(C)[C@H]3CC[C@]12C	inactive
O=C(N/N=C/c1ccccc1O)c1ccncc1	inactive
COCCCC/C(=N\OCCN)c1ccc(C(F)(F)F)cc1	inactive
O=C(Nc1ccc(Oc2ccc(Cl)cc2)c(Cl)c1)c1cc(I)cc(I)c1O	inactive
O=[N+]([O-])c1cc(Cl)c(Cl)c(Cl)c1Cl	inactive
CCCCCCCCCCCC[N+](C)(C)CCCCCCCCCCCC	inactive
CCCN(CCC)c1c([N+](=O)[O-])cc(C(F)(F)F)c(N)c1[N+](=O)[O-]	inactive
CC(=O)N1CCN(c2ccc(OC[C@H]3CO[C@](Cn4ccnc4)(c4ccc(Cl)cc4Cl)O3)cc2)CC1	inactive
COc1cc(/C=C/C(=O)O[C@H]2CC[C@]34C[C@]35CC[C@]3(C)[C@@H]([C@H](C)CCC=C(C)C)CC[C@@]3(C)[C@@H]5CC[C@H]4C2(C)C)ccc1O	inactive
Nc1ccccc1O	inactive
C/C=C(\C)C(=O)OCc1ccccc1	inactive
Cc1cc2c(cc1C(F)(F)F)N(C(=O)Nc1ccc(Oc3cccnc3C)nc1)CC2	inactive
Nc1cc(C(F)(F)F)ccc1S	inactive
CCc1cc(Cc2cc(CC)cc(C(C)(C)C)c2O)c(O)c(C(C)(C)C)c1	inactive
COc1ccc(C(=O)/C(Br)=C\C(=O)O)cc1	active
CN1CCN(CCC(=O)N2c3ccccc3Sc3ccc(C(F)(F)F)cc32)CC1	inactive
O=C1Cc2cc(CCN3CCN(c4nsc5ccccc45)CC3)c(Cl)cc2N1	inactive
CCCCCCCCCCCCCCCCCC[N+](C)(C)Cc1ccccc1	inactive
O=C1CCCCCN1SSN1CCCCCC1=O	inactive
CC(C)=CCOc1ccc(/C=C/C(=O)c2ccc(OCC=C(C)C)cc2OCC(=O)O)cc1	inactive
COc1cccc2c1C(=O)c1c(O)c3c(c(O)c1C2=O)C[C@@](O)(C(=O)CO)C[C@@H]3O[C@H]1C[C@H](N)[C@H](O[C@@H]2CCCCO2)[C@H](C)O1	active
NC(=O)N1C(=O)C(C(=O)c2cc(Cl)cs2)c2cc(F)c(Cl)cc21 (stereo unspecified)	inactive
NNc1nc(-c2ccc(N)cc2)cs1	inactive
COC(=O)C1=C(C)NC(C)=C(C(=O)OCC(C)C)C1c1ccccc1[N+](=O)[O-] (stereo unspecified)	inactive
O=C(NOCC1CC1)c1ccc(F)c(F)c1Nc1ccc(I)cc1Cl	inactive
[Cl][Au]([Cl])[Cl]	inactive
Oc1c(Cl)cc(Cl)c2cccnc12	inactive
Oc1ccc(C2(c3ccc(O)cc3)CC3CC2C2CCCC32)cc1 (stereo unspecified)	inactive
CC(C)(C)CC(C)(C)c1ccc(OCCOCC[N+](C)(C)Cc2ccccc2)cc1	inactive
CCCC(c1cc(C(C)(C)C)c(O)cc1C)c1cc(C(C)(C)C)c(O)cc1C	inactive
